TEST_SYSTEM: T1, PSMA Fab
T1 construct: also called Anti-PSMA Fab; 006 PSMA Fab
PROCEDURE_TEXT: phage binding ELISA; biotinylated PSMA Fab on neutravidin plate, clonal phage supernatant, anti-M13 HRP detection; column read as anti-PSMA Fab pre-incubated with PSMA antigen as competitor
Listed here: items and their measured phage binding ELISA signal.

| BINDER | phage binding ELISA signal |
| --- | --- |
| MVKWCTPPWMCNFE [Phage-2595] | 0.121 |
| SVTWCIPPWMCELS [Phage-2600] | 0.0673 |
| LSKWCIPDWMCISS [Phage-2599] | 0.0618 |
| GMKWCTPEWMCQIV [Phage-2603] | 0.28 |
